assay: Solubility of Compound 1 (HPLC), selection of solubilizer type; format: physicochemical; details: aqueous sbecd 20%, solubility in aqueous SBECD 20%; 24 h at 25°C; read-out: Concentration
observed-property: solubility at 24 h (µg/mL)
Write the number in µg/mL without appending the unit.

Asked: Item N=C1NC[C@@H](c2nnc([C@@H]3CC4(CC4)[C@@H]4CN3C(=O)N4OS(=O)(=O)O)o2)N1 has what recorded solubility at 24 h?
Given back: 8460

All figures here come from patent EP4659750A1.
